Overview of recorded cytotoxicity at 10 µM for various molecules
experiment: Toxicity liver stage against HepG2, at 10uM; type: cell-based; design: test concentration 10 uM, cell line HepG2-A16-CD81EGFP; conditions: human, HepG2-A16-CD81EGFP cells; read-out: INHIBITION
measured-property: cytotoxicity at 10 µM (%)

molecule=CCn1cc(-c2n[nH]c(=O)n2-c2ccc(OC)c(OC)c2)c(C)n1 measured_property="cytotoxicity at 10 µM" unit_name=% endpoint_result=-9.91
molecule=O=C(NCCc1ccccc1)NCCN1CCC(c2cccs2)CC1 measured_property="cytotoxicity at 10 µM" unit_name=% endpoint_result=-4.16
molecule=Cc1nc(CN2CCC(CNC(=O)NCCC3CCC3)CC2)oc1C measured_property="cytotoxicity at 10 µM" unit_name=% endpoint_result=-0.5
molecule="O=C(CCn1c(=O)oc2ccccc21)NCC(O)c1ccc(F)c(F)c1 (stereo not drawn)" measured_property="cytotoxicity at 10 µM" unit_name=% endpoint_result=-12.5
molecule=COc1ccc(NC(=O)Nc2cnc(N3CCN(C)CC3)nc2)cc1Cl measured_property="cytotoxicity at 10 µM" unit_name=% endpoint_result=-19.8
molecule=CN(C)C(=O)CCNC(=O)c1cnc(-c2ccccc2)nc1 measured_property="cytotoxicity at 10 µM" unit_name=% endpoint_result=4.87
molecule="CC(C)c1nc(C2CCCN(C(=O)c3ccc4c(c3)OCO4)C2)no1 (stereo not drawn)" measured_property="cytotoxicity at 10 µM" unit_name=% endpoint_result=-14.1
molecule=CCOc1ccc(C(=O)CCC(=O)N(C)Cc2snnc2C)cc1C measured_property="cytotoxicity at 10 µM" unit_name=% endpoint_result=-2.29
molecule="Nc1cc2c(nn1)CCN(C(=O)C1CCc3ccccc31)C2 (stereo not drawn)" measured_property="cytotoxicity at 10 µM" unit_name=% endpoint_result=-6.58
molecule=O=C1CO[C@@H]2CN(Cc3cccs3)C[C@H]2N1CC1CC1 measured_property="cytotoxicity at 10 µM" unit_name=% endpoint_result=-2.32
molecule="Cc1noc(C(C)N2CCN(Cc3noc(C4CC4)n3)CC2)n1 (stereo not drawn)" measured_property="cytotoxicity at 10 µM" unit_name=% endpoint_result=0.973
molecule="Cc1ccc(C)c(Oc2ccc(CNC(=O)C3CNC(=O)N3)cn2)c1 (stereo not drawn)" measured_property="cytotoxicity at 10 µM" unit_name=% endpoint_result=0.577
molecule=Cc1nnc(SCCNC(=O)Cn2cnc3ccccc3c2=O)s1 measured_property="cytotoxicity at 10 µM" unit_name=% endpoint_result=4.79
molecule=CCCS(=O)(=O)N1CCC2(CC1)CC(=O)N(Cc1cc(F)cc(F)c1)C2 measured_property="cytotoxicity at 10 µM" unit_name=% endpoint_result=8.78
molecule=Cc1cnc(C(=O)N2C[C@@H]3CC[C@H]2CN(c2cnccn2)C3)cn1 measured_property="cytotoxicity at 10 µM" unit_name=% endpoint_result=10.1
molecule=CN(Cc1nccn1C)S(=O)(=O)Cc1cccc(C#N)c1 measured_property="cytotoxicity at 10 µM" unit_name=% endpoint_result=4.16
molecule=COc1ccc2c(c1)OC1(CCN(Cc3ccc(C)cc3)CC1)CC2=O measured_property="cytotoxicity at 10 µM" unit_name=% endpoint_result=7.6
molecule=CC(C)C(=O)N1C[C@H]2CCCN[C@H]2C1 measured_property="cytotoxicity at 10 µM" unit_name=% endpoint_result=1.55
molecule="Fc1cccc(N2CCCC3(CN(Cc4ccccn4)CCO3)C2)c1 (stereo not drawn)" measured_property="cytotoxicity at 10 µM" unit_name=% endpoint_result=2.29
molecule="Cc1cc(C(=O)NCCC2CN(C)CCO2)c2cccc(C)c2n1 (stereo not drawn)" measured_property="cytotoxicity at 10 µM" unit_name=% endpoint_result=-2.94
molecule=CC(C)NC(=O)[C@@H]1C[C@H]2NCC[C@H]2O1 measured_property="cytotoxicity at 10 µM" unit_name=% endpoint_result=-96.9
molecule="Cc1ccsc1CNCC1CCCN1c1cccnn1 (stereo not drawn)" measured_property="cytotoxicity at 10 µM" unit_name=% endpoint_result=-4.48
molecule="Fc1ccc(C2CN(CCc3ccncc3)CCO2)cc1 (stereo not drawn)" measured_property="cytotoxicity at 10 µM" unit_name=% endpoint_result=11

* * *

assay: Toxicity liver stage against HepG2, at 10uM; assay type: cell-based; parameters: test concentration 10 uM, cell line HepG2-A16-CD81EGFP; details: human, HepG2-A16-CD81EGFP cells; read-out: INHIBITION
Overview of recorded cytotoxicity at 10 µM for various molecules
measured-property: cytotoxicity at 10 µM (%)

molecule="CC(NCc1ccc(Cl)o1)c1nnc2n1CCCC2 (stereo unspecified)" endpoint_result=-15.9
molecule=O=S1(=O)NC(c2ccnc(N3CCCCC3)n2)=Nc2ccccc21 endpoint_result=18.3
molecule="Cn1cc(-c2nnn3c2COC(CNCc2nccs2)C3)cn1 (stereo unspecified)" endpoint_result=-4.89
molecule=COCCN1CCN(C(=O)c2ccc(C)cc2F)[C@H]2CS(=O)(=O)C[C@H]21 endpoint_result=-11.4
molecule="COc1cc(CNCC2CNc3ccnn3C2)ccn1 (stereo unspecified)" endpoint_result=-0.65
molecule="CCN1CCN(CCC(=O)NC2CC(c3cccc(Cl)c3)C2)CC1 (stereo unspecified)" endpoint_result=-7.37
molecule=COCCN1CC[C@@H]2O[C@@H](COCC(=O)N3CCCC3)CC[C@@H]21 endpoint_result=-18.1
molecule="Cc1ccc(C(CCNCCCN(C)C)C2CCOC(C)(C)C2)cc1 (stereo unspecified)" endpoint_result=-3.32
molecule=CCNc1ccnc(N2Cc3cnc(CC(C)C)nc3C2)n1 endpoint_result=10.4
molecule="CC1(C(=O)N2CCOCC2)CN(Cc2c[nH]cn2)CCO1 (stereo unspecified)" endpoint_result=-4.61
molecule=O=C(Cc1ccsc1)N1CCn2cc(CN3CCCC3)nc2C1 endpoint_result=-14.2

* * *

experiment: Toxicity liver stage against HepG2, at 10uM; format: cell-based; set-up: test concentration 10 uM, cell line HepG2-A16-CD81EGFP; details: human, HepG2-A16-CD81EGFP cells; read-out: INHIBITION
Overview of recorded cytotoxicity at 10 µM for various compounds
measured-property: cytotoxicity at 10 µM (%)

compound=CN(CCCc1cc(-c2ccc(F)cc2)n[nH]1)C(=O)CCn1cncn1 unit_name=% endpoint_result=-137
compound=CN(C)C(=O)COC[C@]12COC[C@H]1CN(CCc1ccccc1)C2 unit_name=% endpoint_result=-1.69
compound=CN(C)C(=O)CN(C)C(=O)c1cnc(Cc2ccc(F)cc2)s1 unit_name=% endpoint_result=8.66
compound=Cc1cc2nc(O)c(O)nc2cc1S(=O)(=O)NC1CC1 unit_name=% endpoint_result=9.43
compound="CS(=O)(=O)c1ccc(CNC2CCCN(c3cccnn3)C2)cc1 (configuration not stated)" unit_name=% endpoint_result=1.3
compound=CN(Cc1cn2c(n1)CN(C(=O)c1ccc[nH]1)CC2)Cc1ccco1 unit_name=% endpoint_result=-3.55
compound=Cc1ccc(NC2CCN(C(=O)CCc3ccco3)CC2)nn1 unit_name=% endpoint_result=-2.97
compound=Brc1cnc(NCCCOCC2CCOCC2)nc1 unit_name=% endpoint_result=16.8
compound="Cc1cc(=O)[nH]c(SC(C)C(=O)N2CCC(NS(C)(=O)=O)CC2)n1 (configuration not stated)" unit_name=% endpoint_result=-10.4
compound=Cc1cc(N2CCc3c(ncn3C)C2)nc(N)n1 unit_name=% endpoint_result=-7.93
compound=c1cncc(N2CCCn3nnc(COCC4CC4)c3C2)c1 unit_name=% endpoint_result=5.5
compound="CC(=O)N1CCC1c1cc(N2CCNC(=O)C2)nc(C)n1 (configuration not stated)" unit_name=% endpoint_result=-1.62
compound=c1cnc(NCc2cncc3c2CCN(Cc2cccnc2)C3)nc1 unit_name=% endpoint_result=-68.5
compound=Cc1nn(C)c(C)c1CN(C)C(=O)c1cc(C(F)(F)F)n(C)n1 unit_name=% endpoint_result=-0.65
compound=CC(C)N(Cc1cnn(C)c1)C(=O)c1ccnc(N(C)C)c1 unit_name=% endpoint_result=10.6
compound=CC(C)c1nnc2n1CCN(C(=O)c1cn(-c3ccccc3)nn1)C2 unit_name=% endpoint_result=-144
compound=COc1ccc(CN2C[C@@H](F)[C@@H](OCc3nc4cnccc4[nH]3)C2)cn1 unit_name=% endpoint_result=2.08
compound=O=C1N(Cc2cccnc2)C[C@H]2CN(C3CCOCC3)CCN12 unit_name=% endpoint_result=-9.7
compound="CCOC(=O)C1CC2(CCOCC2)N2CCC(=O)N12 (configuration not stated)" unit_name=% endpoint_result=2.39
compound="CC(C)CC1SCC(=O)Nc2c1cnn2C(C)C (configuration not stated)" unit_name=% endpoint_result=1.11
compound=COCCNC(=O)[C@@H]1CN(Cc2sccc2C)C[C@H]2OCC[C@H]21 unit_name=% endpoint_result=2.98
compound="CC(C)C1CN(C(=O)c2ccc(N3CCCC3)nc2)CCS1 (configuration not stated)" unit_name=% endpoint_result=-4.81
compound="CCc1n[nH]c(C2CN(Cc3csc(COC)n3)CCO2)n1 (configuration not stated)" unit_name=% endpoint_result=0.753
compound=CC(C)Oc1ccc(CNC(=O)c2cc(C(N)=O)cs2)cc1F unit_name=% endpoint_result=12.6
compound=O=c1c(=CS(=O)(=O)Nc2ccc(Br)cc2)[nH]c(=O)n2cccc12 unit_name=% endpoint_result=-9.95
compound="O=C(Cc1cccs1)N1CCC(O)(CN2CCc3ccccc3C2)C1 (configuration not stated)" unit_name=% endpoint_result=-1.47
compound="Cc1nnc(C(C)N2CCN(Cc3ccc(C#N)cc3)CC2)o1 (configuration not stated)" unit_name=% endpoint_result=-12.2
compound="Cc1nc(SC2CCN(c3sccc3C#N)C2=O)oc1C (configuration not stated)" unit_name=% endpoint_result=-4.92
compound=Cc1cc(-c2nn(C)c(Cl)c2CN2CCC3(CC2)[C@H](O)C[C@@H]3O)no1 unit_name=% endpoint_result=-5.66
compound="Cc1csc(CN(C)C(=O)C2CCC(=O)N(CCN(C)C)C2)n1 (configuration not stated)" unit_name=% endpoint_result=15.6
compound="CC(C)SCc1cccc(NC(=O)NC(C)c2nc[nH]n2)c1 (configuration not stated)" unit_name=% endpoint_result=-45.2
compound="CC(C)Oc1cccc(CNC(=O)NC(C)(C(=O)O)c2ccco2)c1 (configuration not stated)" unit_name=% endpoint_result=-2.77
compound="O=C(Cn1nc(-c2ccc(F)cc2)oc1=O)NCC1CCCO1 (configuration not stated)" unit_name=% endpoint_result=1.62
compound=CC(C)c1nn(C)c(N(C)C)c1CNCc1ccc(CO)c(F)c1 unit_name=% endpoint_result=-5.4
compound=O=C(c1cscn1)N1CCc2ncc(CN3CCCC3)n2CC1 unit_name=% endpoint_result=-111
compound=Cc1ccc(CN2C[C@@H]3C[C@H](C(=O)Nc4cccnc4)[C@H](C2)O3)cc1 unit_name=% endpoint_result=-83.8
compound="Cc1n[nH]c(C2CN(Cc3csc(C4CCCC4)n3)CCO2)n1 (configuration not stated)" unit_name=% endpoint_result=12.9
compound=O=C(O)c1csc(S(=O)(=O)N2CCN(Cc3ccc(Cl)cc3)CC2)c1 unit_name=% endpoint_result=4
compound=CS(=O)(=O)NC[C@H]1OC[C@@H]2CCN(Cc3ccc(F)cc3)C[C@@H]21 unit_name=% endpoint_result=-2.26
compound=CN(C)C(=O)COCc1cncc2c1CCN(C1CCOCC1)C2 unit_name=% endpoint_result=9.66
compound="O=C(NCCCn1cccn1)C1CCC(=O)N(CC2CCCCC2)C1 (configuration not stated)" unit_name=% endpoint_result=-0.312
compound=N#Cc1ccc(C(=O)N2CCC3(CC2)CC3)cc1 unit_name=% endpoint_result=3.56
compound="CN(CCCc1cnn(C)c1)C(=O)C1COc2ccccc2C1 (configuration not stated)" unit_name=% endpoint_result=-5.91
compound=CC(C)N(C)S(=O)(=O)NCc1cccnc1N(C)C unit_name=% endpoint_result=2.57
compound="CCc1ccc(CNc2cc(N3CCCC3CO)ncn2)s1 (configuration not stated)" unit_name=% endpoint_result=-13
compound=CCCc1nc(NCCCO)c2c(n1)c(C)nn2CC unit_name=% endpoint_result=2.55
compound=CNS(=O)(=O)Cc1ccc(CNC(=O)Nc2cn[nH]c2)cc1 unit_name=% endpoint_result=-0.935
